# assay_notes: Metabolic stability in rat liver microsome assessed as half life measured upto 4 hrs in presence of NADPH by LC-MS/MS analysis
# Format: ADME
# test_parameters: liver microsomes
observable: half-life (min)

I. COc1ccc2c(ccn2C[C@H](O)CN2CCc3ccccc3C2)c1
II. O=C(NC[C@H](O)CN1CCc2ccccc2C1)c1ccc2c(c1)CCN(C(=O)c1ccc(Br)cc1)C2
III. Oc1ccc2c(c1)CCN(C[C@@H](O)Cn1ccc3ccc(Br)cc31)C2
*Q* Rank items: key half-life, increasing. A ranking is expressed here by listing the labels in the requested order.
*A* III, II, I

====

# assay_notes: Cmax in Sprague-Dawley rat at 10 mg/kg, po measured upto 24 hrs by LC-MS/MS analysis
# Assay type: ADME, organism-based
# test_parameters: in vivo
observable: Cmax (ng/mL)

1. COc1ccc2c(ccn2C[C@H](O)CN2CCc3ccccc3C2)c1
2. O=C(NC[C@H](O)CN1CCc2ccccc2C1)c1ccc2c(c1)CCN(C(=O)c1ccc(Br)cc1)C2
*Q* Returns: the argument ( 1 or 2 ) having the larger Cmax. Answer with the label corresponding to your selection.
*A* 1
(1: 160 ng/mL, 2: 77.1 ng/mL)

====

# system_under_test: Protein arginine N-methyltransferase 1 (Homo sapiens, UniProt Q99873)
# Sequence (Q99873 whole entry): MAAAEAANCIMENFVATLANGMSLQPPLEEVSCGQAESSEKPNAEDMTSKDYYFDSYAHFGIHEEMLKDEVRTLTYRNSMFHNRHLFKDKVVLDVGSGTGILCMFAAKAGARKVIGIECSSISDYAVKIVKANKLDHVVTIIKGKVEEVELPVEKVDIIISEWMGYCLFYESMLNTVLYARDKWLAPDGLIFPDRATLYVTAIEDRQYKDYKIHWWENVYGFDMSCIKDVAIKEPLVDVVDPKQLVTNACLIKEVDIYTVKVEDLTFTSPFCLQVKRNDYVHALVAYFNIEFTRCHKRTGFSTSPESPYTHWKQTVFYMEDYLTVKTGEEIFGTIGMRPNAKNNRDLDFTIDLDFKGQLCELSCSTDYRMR
observable: IC50 (µM)
Respond with the bare value in µM.

Protein arginine N-methyltransferase 1 (Homo sapiens, UniProt Q99873) IC50 of Oc1ccc2c(c1)CCN(C[C@@H](O)Cn1ccc3ccc(Br)cc31)C2 is 10.2

====

# assay_notes: AUC (0 to t) in Sprague-Dawley rat at 10 mg/kg, po measured upto 24 hrs by LC-MS/MS analysis
# Type: ADME, organism-based
# test_parameters: in vivo
observable: AUC(0-t) at 24 h (ng·h/mL)

a. COc1ccc2c(ccn2C[C@H](O)CN2CCc3ccccc3C2)c1
b. O=C(NC[C@H](O)CN1CCc2ccccc2C1)c1ccc2c(c1)CCN(C(=O)c1ccc(Br)cc1)C2
*Q* Returns: the argument ( a or b ) having the larger AUC(0-t) at 24 h. Answer with the label corresponding to your selection.
*A* a
(a: 1970 ng·h/mL, b: 223 ng·h/mL)

====

# Tested on: MCF7
# assay_notes: Antiproliferative activity against human MCF7 cells assessed as inhibition of cell growth incubated for 24 hrs by SRB assay
# Type: functional, cell-based
# test_parameters: MCF7, 24 h
pIC50: −log10 of the molar value.
observable: pIC50

Value of pIC50 reported for the compound Oc1ccc2c(c1)CCN(C[C@@H](O)Cn1ccc3ccc(Br)cc31)C2 is 4.54

Value of pIC50 reported for the compound COc1ccc2c(ccn2C[C@H](O)CN2CCc3ccccc3C2)c1 is 4.63

Value of pIC50 reported for the compound O[C@H](CN1CCc2ccccc2C1)Cn1ccc2ccc(Br)cc21 is 4.60

====

# assay_notes: AUC (0 to infinity) in Sprague-Dawley rat at 10 mg/kg, po measured upto 24 hrs by LC-MS/MS analysis
# Assay type: ADME, organism-based
# test_parameters: in vivo
observable: AUC(0-inf) (ng·h/mL)

I. O=C(NC[C@H](O)CN1CCc2ccccc2C1)c1ccc2c(c1)CCN(C(=O)c1ccc(Br)cc1)C2
II. COc1ccc2c(ccn2C[C@H](O)CN2CCc3ccccc3C2)c1
*Q* Returns: the argument ( I or II ) having the larger AUC(0-inf). Answer with the label corresponding to your selection.
*A* II

====

# Tested on: HepG2
# assay_notes: Antiproliferative activity against human HepG2 cells assessed as inhibition of cell growth incubated for 24 hrs by SRB assay
# Type: functional, cell-based
# test_parameters: HepG2, 24 h
pIC50: −log10 of the molar value.
observable: pIC50

Value of pIC50 reported for the compound O[C@H](CN1CCc2ccccc2C1)Cn1ccc2ccc(Br)cc21 is 4.78

1. COc1ccc2c(ccn2C[C@H](O)CN2CCc3ccccc3C2)c1
2. Oc1ccc2c(c1)CCN(C[C@@H](O)Cn1ccc3ccc(Br)cc31)C2
*Q* Returns: the argument ( 1 or 2 ) having the larger pIC50. Answer with the label corresponding to your selection.
*A* 1
(1: 4.56, 2: 4.24)

====

# assay_notes: AUC (0 to infinity) in Sprague-Dawley rat at 2 mg/kg, iv measured upto 24 hrs by LC-MS/MS analysis
# Type: ADME, organism-based
# test_parameters: in vivo
observable: AUC(0-inf) (ng·h/mL)
Respond with the bare value in ng·h/mL.

Value of AUC(0-inf) reported for the molecule COc1ccc2c(ccn2C[C@H](O)CN2CCc3ccccc3C2)c1 is 1280

====

# assay_notes: Cmax in Sprague-Dawley rat at 2 mg/kg, iv measured upto 24 hrs by LC-MS/MS analysis
# Type: ADME, organism-based
# test_parameters: in vivo
observable: Cmax (ng/mL)
Respond with the bare value in ng/mL.

Value of Cmax reported for the molecule COc1ccc2c(ccn2C[C@H](O)CN2CCc3ccccc3C2)c1 is 182

====

# assay_notes: Tmax in Sprague-Dawley rat at 10 mg/kg, po measured upto 24 hrs by LC-MS/MS analysis
# Assay type: ADME, organism-based
# test_parameters: in vivo
observable: Tmax (h)

I. O=C(NC[C@H](O)CN1CCc2ccccc2C1)c1ccc2c(c1)CCN(C(=O)c1ccc(Br)cc1)C2
II. COc1ccc2c(ccn2C[C@H](O)CN2CCc3ccccc3C2)c1
*Q* Returns: the argument ( I or II ) having the larger Tmax. Answer with the label corresponding to your selection.
*A* II
(II: 2.7 h, I: 0.3 h)

====

# assay_notes: Clearance in Sprague-Dawley rat at 2 mg/kg, iv measured upto 24 hrs by LC-MS/MS analysis
# Assay type: ADME, organism-based
# test_parameters: in vivo
observable: clearance (mL/min/kg)
Respond with the bare value in mL/min/kg.

Value of clearance reported for the molecule COc1ccc2c(ccn2C[C@H](O)CN2CCc3ccccc3C2)c1 is 26.7

====

# assay_notes: Oral bioavailability in Sprague-Dawley rat at 10 mg/kg measured upto 24 hrs by LC-MS/MS analysis
# Format: ADME, organism-based
# test_parameters: in vivo
observable: bioavailability (%)
Respond with the bare value in %.

Value of bioavailability reported for the compound COc1ccc2c(ccn2C[C@H](O)CN2CCc3ccccc3C2)c1 is 31.4
